FYI, the data here is from PubChem BioAssay AID1259249.

I'd be grateful if you could share measured growth activity, negative = inhibition for these entries.
Assay method text: blockers of Clostridium difficile growth – HTS, primary screen (AID 1259249);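 note: 0% = DMSO wells and -100% = levofloxacin 16 µg/mL wells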
Condition: Clostridium difficile clinical isolate growth, OD600, 24 h; hits give low values; screened at 16 µg/mL (by protocol)
Among all 86,000 compounds or so, about 220 (0.26%) were called active. This is one part of a sample in which actives are shown more often than they occur.
One number for each entry, in %.

Look over these answered cases.
Suppose we examine the compound O=C(C[C@@H]1CC[C@@H](NC(=O)C2CCOCC2)[C@H](CO)O1)NCC1CC1 ; what growth activity, negative = inhibition value has been reported? 1.16

Queued: CNC(=O)C[C@H]1CC[C@H]2[C@H](COc3ccc(NC(=O)Nc4ccc(F)cc4)cc3C(=O)N2C)O1 -3.32

Queued: CCCC(=O)Nc1ccc2c(c1)C(=O)N(C)[C@H]1CC[C@@H](CC(=O)NCC(F)(F)F)O[C@@H]1CO2 4.45

Queued: C/C=C/c1ccc([C@@H]2[C@@H](CO)N(C(=O)c3ccccc3)C23CN(C(C)=O)C3)cc1 -2.56

Queued: COc1ccc(S(=O)(=O)N(C)C[C@@H]2OCCCC[C@H](C)Oc3ccc(NC(=O)Nc4ccccc4)cc3C(=O)N([C@H](C)CO)C[C@H]2C)cc1 -1.33

Queued: COc1ccc2c3c([nH]c2c1)[C@@H](CO)N(C(=O)c1ccccc1)CC31CCN(Cc2cccnc2)CC1 3.57

Queued: COc1ccc2c3c([nH]c2c1)[C@H](CO)N(C(=O)Nc1ccc(F)cc1)CC31CN(S(=O)(=O)c2cccc(F)c2)C1 0.0849

Queued: C[C@H](NC(=O)[C@@H]1[C@@H](CO)[C@@H]2Cn3c(ccc(-c4cccc(F)c4)c3=O)[C@@H]2N1C)c1ccccc1 -2.53

Queued: CCCNC(=O)N1C[C@H](C)[C@@H](OC)CN(C)C(=O)c2ccc(NS(=O)(=O)CC(F)(F)F)cc2OC[C@@H]1C -2.19

Queued: COc1ccccc1NC(=O)N1CC(=O)N2[C@H](C1)[C@H](c1ccc(C#Cc3ccccc3)cc1)[C@@H]2CO 12.6

I would be grateful if you could provide growth activity, negative = inhibition for each of the following entries.
1. C[C@@H]1CCCCO[C@@H](CN(C)C(=O)Nc2ccc3c(c2)OCO3)[C@H](C)CN([C@H](C)CO)C(=O)c2cc(NC(=O)CCCN(C)C)ccc2O1
2. CC(C)NC(=O)N1[C@@H]2CN(C(=O)C3CCCCC3)c3ccccc3[C@@H]2[C@@H]1CO
3. C[C@H]1CN([C@@H](C)CO)C(=O)c2cc(C#CC3CCCCC3)cnc2O[C@@H]1CN(C)C(=O)Cc1ccccn1
4. O=C(C[C@@H]1CC[C@@H](NC(=O)c2cccnc2)[C@H](CO)O1)NCCN1CCCCC1

[5.23, -5.28, -14, -5.37]

I would be grateful if you could provide growth activity, negative = inhibition for each of the following entries.
1. COc1cccc(NC(=O)N(C)C[C@H]2Oc3cc(/C=C/c4ccccc4)ccc3S(=O)(=O)N([C@H](C)CO)C[C@@H]2C)c1
2. COc1ccc2c3c(n(C)c2c1)[C@H](CO)N(CC1CC1)CC31CCN(C(=O)c2ccccc2)CC1

5.84
22.3
